Could you please report measured self-splicing fitness (ln) for the items listed next?
- ASSAY OVERVIEW: self-splicing fitness, log relative to wild type (ln ratio); higher = more splicing; Tetrahymena group I intron in knt gene, E. coli kanamycin selection, DiMSum; sequences stand for … in CUCUCU…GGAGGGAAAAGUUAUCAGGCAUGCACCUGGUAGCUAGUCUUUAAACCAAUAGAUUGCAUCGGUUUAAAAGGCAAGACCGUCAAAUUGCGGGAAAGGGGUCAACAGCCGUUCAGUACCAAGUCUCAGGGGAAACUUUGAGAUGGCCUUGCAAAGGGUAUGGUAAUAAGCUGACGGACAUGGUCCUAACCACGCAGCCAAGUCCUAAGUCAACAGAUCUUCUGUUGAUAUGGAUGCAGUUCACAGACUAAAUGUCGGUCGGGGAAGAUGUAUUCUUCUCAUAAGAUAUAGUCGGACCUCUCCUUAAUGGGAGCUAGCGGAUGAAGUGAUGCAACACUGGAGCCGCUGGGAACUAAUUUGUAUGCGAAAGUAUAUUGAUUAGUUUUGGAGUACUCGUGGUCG;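 further: selection with 25 µg/mL kanamycin versus none on LB agar overnight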
- CONDITION NOTES: 37 °C
One number for each entry.

I'm hoping you can list self-splicing fitness (ln) for every sequence here, please.
1. CGUCAGCAAUAUUACGCGCC
2. ACGGAGCAAUAUUACGAUAU
3. GGUGAGCAAUAUUACGCUAA
4. CCGUAGCAAUAUUACGCUUA

[reply]
-0.529
-2.12
-1.78
-1.7

* * *

- ASSAY OVERVIEW: self-splicing fitness, log relative to wild type (ln ratio); higher = more splicing; Tetrahymena group I intron in knt gene, E. coli kanamycin selection, DiMSum; sequences stand for … in CUCUCU…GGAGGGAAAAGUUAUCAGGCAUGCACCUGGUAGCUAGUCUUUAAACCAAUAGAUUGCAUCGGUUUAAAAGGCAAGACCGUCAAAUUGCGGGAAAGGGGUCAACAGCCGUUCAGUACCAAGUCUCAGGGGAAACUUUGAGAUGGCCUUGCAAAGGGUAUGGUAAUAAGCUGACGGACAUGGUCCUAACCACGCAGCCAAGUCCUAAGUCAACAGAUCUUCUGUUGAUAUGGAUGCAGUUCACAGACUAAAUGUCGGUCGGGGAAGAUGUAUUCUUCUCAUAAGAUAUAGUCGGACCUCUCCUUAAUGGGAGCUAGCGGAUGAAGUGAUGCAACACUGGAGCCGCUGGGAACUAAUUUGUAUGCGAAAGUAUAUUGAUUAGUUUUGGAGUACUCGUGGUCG
- CONDITION NOTES: 37 °C
ASSAY METRIC: self-splicing fitness (ln)

Some sequences with recorded self-splicing fitness (ln):
- SEQUENCE RECORD: "GCUCAGCAAUAUUACGCUUU"
  self-splicing fitness (ln): -0.887
- SEQUENCE RECORD: "CUAUAGCAAUAUUACGGCCA"
  self-splicing fitness (ln): -3.35

I'm hoping you can list self-splicing fitness (ln) for every sequence here, please.
1. CACGAGCAAUAUUACGUUCC
2. GCUGAGCAAUAUUACGUACA

[reply]
1: -2.15; 2: -2.88

I'm hoping you can list self-splicing fitness (ln) for every sequence here, please.
1. GCCCAGCAAUAUUACGACAG
2. AUGAAGCAAUAUUACGGAAC
3. CCGAAGCAAUAUUACGCUUG
4. UACAAGCAAUAUUACGGAAC

[reply]
1: -1.78; 2: -1.24; 3: -2.26; 4: -2.28
